system: Staphylococcus aureus, MRSA (ATCC 33591); assay: Antibacterial MIC assay (microbroth dilution, CLSI); format: cell-based; conditions: microbroth dilution, cation-adjusted Mueller-Hinton broth, 35° C. for 16-20 hours, read-out: MIC Staphylococcus aureus, MRSA (ATCC 33591)
endpointName: MIC

# example entries with known answers
{"molecule": "C=C[C@]1(C)C[C@@H](OC(=O)COc2ccc3c(c2)B(O)OC3CNS(C)(=O)=O)[C@]2(C)[C@H](C)CC[C@]3(CCC(=O)[C@H]32)[C@@H](C)[C@@H]1O (some centres unmarked) [Compound 23]", "obsValue": "0.5 to 2 µg/mL"}
{"molecule": "C=C[C@]1(C)C[C@@H](OC(=O)COc2ccc3c(c2)B(O)OC3CNC(C)=O)[C@]2(C)[C@H](C)CC[C@]3(CCC(=O)[C@H]32)[C@@H](C)[C@@H]1O (some centres unmarked) [Compound 22]", "obsValue": "0.5 to 2 µg/mL"}
{"molecule": "C=C[C@]1(C)C[C@@H](OC(=O)Nc2ccc3c(c2)B(O)OC3)[C@]2(C)[C@H](C)CC[C@]3(CCC(=O)[C@H]32)[C@@H](C)C1=O [Compound 43]", "obsValue": "0.5 to 2 µg/mL"}
{"molecule": "C=C[C@]1(C)C[C@@H](OC(=O)COc2ccc3c(c2F)B(O)OC3)[C@]2(C)[C@H](C)CC[C@]3(C[C@H](F)C(=O)[C@H]32)[C@@H](C)[C@@H]1O [Compound 39]", "obsValue": "< 0.25 µg/mL"}

Then there is this molecule:
The recorded MIC for entry C=C[C@]1(C)C[C@@H](OC(=O)COc2cc3c(c(C4CCNCC4)c2)COB3O)[C@]2(C)[C@H](C)CC[C@]3(CCC(=O)[C@H]32)[C@@H](C)[C@@H]1O [Compound 18] equals 0.5 to 2 µg/mL
